Experiment: qHTS for identification of novel therapeutic agents for treatment of microphthalmiaassociated transcription factor (MiT) renal cell carcinoma (RCC) (AID 1963991);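 note: curves scaled with 100% = DMSO viability and 0% = empty wells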
Details: TFE3-RCC viability, CellTiter-Glo, 48 h; measured here: UOK145 Z-AUC; stronger effect = lower value
Records with an inconclusive call do not appear.
In this scheme, each record receives a class according to its z-score; the ranges are low = under -1, middle = from -1 up to 0.5, high = 0.5 and over

Q. Categorize the following entry: OC[C@H]1O[C@@H](n2cnc3c2NC=NC[C@@H]3O)C[C@H]1O
A. middle

Q. Class (by measured z-score) for CN(C)c1cc(NC(=O)CNC(C)(C)C)c(O)c2c1C[C@@H]1C[C@H]3[C@H](N(C)C)C(=O)C(C(N)=O)=C(O)[C@@]3(O)C(=O)C1=C2O
A. high

Q. Kindly identify the class of CO[C@H]1C=CC=C(C)C(=O)NC2=CC(=O)C(NCCN(C)C)=C(C[C@@H](C)C[C@H](OC)[C@@H](O)[C@@H](C)C=C(C)[C@@H]1OC(N)=O)C2=O .
A. low

Q. // bin(item) where item = CCCCCN(C)CCC(O)(P(=O)(O)O)P(=O)(O)O
A. middle

Q. Class? Entry: COc1cc(N2CCC(N3CCN(C)CC3)CC2)ccc1Nc1ncc(Cl)c(Nc2ccccc2S(=O)(=O)C(C)C)n1
A. low

Q. Which class is correct for the following compound? C=C1C(=O)OC(CCCCCCCC)C1C(=O)O (centres undefined)
A. high

Q. Which of the defined bands does the recorded z-score of O=C(OCC#CCSc1nnc(-c2cccc3ccccc23)o1)c1cc2ccccc2s1 sit within?
A. middle

Q. Returns: class label. Input: O=c1ccn([C@@H]2O[C@H](CO)[C@H](O)[C@H]2O)c(=O)[nH]1
A. high

Q. Lab note: which band did c1ccc2c(-c3cnn4cc(-c5ccc(N6CCNCC6)cc5)cnc34)ccnc2c1 land in?
A. low

----------
Kindly supply the reported activity change, negative = inhibition values for the records listed here.
Biological target: Guanidinoacetate N-methyltransferase (Homo sapiens)
Assay: Confirmatory Screen for Target Class Profiling of Small Molecule Inhibitors of Methyltransferases (AID 1745852); note: % is set by controls: 0 for no effect and ±100 for the full control effect
Conditions: MTase-Glo luminescence, SAH detection, recombinant enzyme; at 57.3 µM (top of the series) unless noted
Enter your answer as a number in %; do not include the unit.

Q. Can you look up activity change, negative = inhibition on Guanidinoacetate N-methyltransferase (Homo sapiens) for CC(=O)N(C)C1(c2ccccc2)CCN(CCC[C@]2(c3ccc(Cl)c(Cl)c3)CCCN(C(=O)c3ccccc3)C2)CC1 ?
A. 0

Q. Query activity change, negative = inhibition on Guanidinoacetate N-methyltransferase (Homo sapiens) for COc1ccc(Cc2nccc3cc(OC)c(OC)cc23)cc1OC
A. -7.19

Q. Could you share what activity change, negative = inhibition was measured for COc1ccc2c(Oc3ccc(NC(=O)c4c(C)n(CC(C)(C)O)n(-c5ccccc5)c4=O)cc3F)ccnc2c1 , tested on Guanidinoacetate N-methyltransferase (Homo sapiens)?
A. -3.46

Q. Any idea what activity change, negative = inhibition came out for CN1CCN(CCOc2cc(OC3CCOCC3)c3c(Nc4c(Cl)ccc5c4OCO5)ncnc3c2)CC1 on Guanidinoacetate N-methyltransferase (Homo sapiens)?
A. -0.0396

Q. Under Guanidinoacetate N-methyltransferase (Homo sapiens): activity change, negative = inhibition value of NC(=O)c1cnc(-c2ccc(C3(N)CCC3)cc2)c(-c2ccccc2)c1 ?
A. 0.723

Q. Requested read-out activity change, negative = inhibition, target or system Guanidinoacetate N-methyltransferase (Homo sapiens), entry CC[C@]1(O)C[C@@H]2CN(CCc3c([nH]c4ccccc34)[C@@](C(=O)OC)(c3cc4c(cc3OC)N(C)[C@H]3[C@@](O)(C(=O)OC)[C@H](OC(C)=O)[C@]5(CC)C=CCN6CC[C@]43[C@@H]65)C2)C1
A. 10.8

----------
Experiment: qHTS of pediatric cancer cell lines to identify multiple opportunities for drug repurposing: Primary screen for NB-EBc1 cells (AID 1347095); note: potency is the fitted concentration of half-maximal effect
Conditions: NB-EBc1 neuroblastoma viability, CellTiter-Glo luminescence, 48 h; series mostly up to 46 µM
Inconclusive results are not listed. The source made the active and inactive calls. Calls come from the whole dose curve; as a rule, active = well fitted cell-killing curve with a large enough effect; inconclusive = small, poorly fitted or top-dose-only effect; inactive = no such curve, though single readings can be large or run the other way.
readout label: Potency

- molecule: "NC(=O)c1cnc(-c2ccc(C3(N)CCC3)cc2)c(-c2ccccc2)c1"
  endpoint result: "inactive"
- molecule: "CN(C)Cc1cccc(N=C(c2ccccc2)c2c(O)[nH]c3cc(C(=O)N(C)C)ccc23)c1"
  endpoint result: "18.7 µM (active)"
- molecule: "COc1ccc(-c2nc(N3CCOCC3)c3sc(CN(C)c4ncc(C(=O)NO)cn4)cc3n2)cn1"
  endpoint result: "0.001 µM (active)"
- molecule: "COc1ccc(-n2c(C)c([N+](=O)[O-])c3ccc(O)cc32)cc1"
  endpoint result: "inactive"

Moving on to the next molecule.
Q. # input molecule: Cc1nnc(C(C)C)n1C1C[C@H]2CC[C@@H](C1)N2CC[C@H](NC(=O)C1CCC(F)(F)CC1)c1ccccc1 (stereo not given in full) ; wanted: its Potency
A. inactive

----------
Assay: Quantitative High-Throughput drug screen in 47 multiple myeloma cell lines against the NCATS MIPE library collection: OCIMY7_PLB cell viability assay (AID 1918987); note: potency is the fitted concentration of half-maximal effect; nearly all actives have a fitted effect of over 65% in size
Details: OCI-MY7 myeloma viability, CellTiter-Glo ATP, 48 h
Inconclusive results are not listed. Active and inactive are the calls of the source. Calls follow the shape of the dose curve; as a rule, active = well fitted cell-killing curve with a large enough effect; inconclusive = small, poorly fitted or top-dose-only effect, or effect the other way; inactive = no such curve, though single readings can be large or run the other way.
readout label: Potency

Q. Which Potency is reported for this compound? CCn1c(C(=O)N(C2CC2)C2CC2)cc2c3c(ncn3C)c(Nc3cc(C)n(C)n3)nc21
A. 14.8 µM (active)

Q. Consider the compound COc1cc2c(cc1OC)CN(CCc1ccc(NC(=O)c3cc(OC)c(OC)cc3NC(=O)c3cnc4ccccc4c3)cc1)CC2 and give its measured Potency.
A. 6.62 µM (active)

Q. Endpoint output: Potency of Cc1c(NC(=O)c2ccc(C(C)(C)C)cc2)cccc1-c1cn(C)c(=O)c(Nc2ccc(C(=O)N3CCOCC3)cc2)n1 . Value?
A. 8.33 µM (active)

Q. Need Potency of O=C1NC(=O)C(=Cc2ccc(-c3ccc(F)cc3)o2)S1 , thanks.
A. 20.9 µM (active)

----------
For each entry below, report its Potency value.
Assay: Quantitative High-Throughput drug screen in 47 multiple myeloma cell lines against the NCATS MIPE library collection: KMS11_JCRBsus cell viability assay (AID 1919873); note: nearly all actives have a fitted effect of over 50% in size; note: potency is the fitted concentration of half-maximal effect
Conditions: KMS11 myeloma viability, CellTiter-Glo ATP luminescence, 48 h; series mostly up to 45.8 µM
Inconclusive results are not listed. Active and inactive are the calls of the source. Calls come from the whole dose curve; as a rule, active = well fitted cell-killing curve with a large enough effect; inconclusive = small, poorly fitted or top-dose-only effect, or effect the other way; inactive = no such curve, though single readings can be large or run the other way.

Q. Which Potency value belongs to CCOC(=O)C1=C(N)Oc2ccc(Br)cc2C1C(C#N)C(=O)OCC (stereo not drawn) ?
A. 23.5 µM (active)

Q. Any idea what Potency was measured for COCCOC(=O)C1=C(C)NC2=C(C(=O)CC(c3ccccc3OC)C2)C1c1cccc(O)c1 (stereo not drawn) ?
A. 5.26 µM (active)

----------
Experiment: Quantitative High-Throughput drug screen in 47 multiple myeloma cell lines against the NCATS MIPE library collection: KMS11_JCRBsus cell viability assay (AID 1919873); note: nearly all actives have a fitted effect of over 50% in size
Conditions: KMS11 myeloma viability, CellTiter-Glo ATP luminescence, 48 h; series mostly up to 45.8 µM
Inconclusive results are not listed. The source made the active and inactive calls. Calls follow the shape of the dose curve; as a rule, active = well fitted cell-killing curve with a large enough effect; inconclusive = small, poorly fitted or top-dose-only effect, or effect the other way; inactive = no such curve, though single readings can be large or run the other way.
// classify into active, inactive

Q. So what was the verdict on Cc1cc(OCCCc2c(C(=O)O)n(Cc3cccnc3)c3c(-c4c(COc5ccc(N6CCN([S+](C)(=O)[O-])CC6)cc5)nn(C)c4C)cccc23)cc(C)c1Cl in this test?
A. active

Q. Call for entry COc1ccc(Cc2nccc3cc(OC)c(OC)cc23)cc1OC :
A. active

Q. What was the test verdict on Nc1ncnc2c1nc(Cl)n2[C@@H]1O[C@H](CO)[C@@H](O)[C@@H]1O ?
A. active

Q. Which outcome did this test record for the compound O=C(CCN1CCN(C(=O)OCc2cc(Cl)cc(Cl)c2)CC1)c1ccc2[nH]c(=O)oc2c1 ?
A. inactive

Q. Record lookup: outcome of this test for CCNc1cc(NC2CCC(O)CC2)nc(Nc2ccc3c(ccn3Cc3ccccc3)c2)n1 (centres undefined) ?
A. active

Q. Assay outcome for N[C@H](CSC(c1ccccc1)(c1ccccc1)c1ccccc1)C(=O)O : what was it?
A. active

Q. State the result this test recorded for CC(=O)Nc1ccc([C@H](C)C(=O)Nc2ncc(C(C)C)s2)cc1 .
A. active

Q. Could you kindly confirm the outcome this assay logged for O=C1NC(=O)C(=Cc2ccc3c(c2)OC(F)(F)O3)S1 ?
A. inactive

Q. Hey, what did the test say about CC(C)(Cc1ccc2ccccc2c1)NC[C@@H](O)COc1cccc(Cl)c1C#N ?
A. inactive

Q. Outcome logged for CC#CCn1c(N2CCC[C@@H](N)C2)nc2c1c(=O)n(Cc1nc(C)c3ccccc3n1)c(=O)n2C in this assay:
A. inactive

Q. # outcome recorded in this test, key = O=c1cc(-c2ccc(O)cc2)oc2cc(O)cc(O)c12
A. active

Q. In this assay, the call recorded for CC(C)(C)OC(=O)N[C@H]1CCCCCC=C[C@@H]2C[C@@]2(C(=O)NS(=O)(=O)C2CC2)NC(=O)[C@@H]2C[C@@H](OC(=O)N3Cc4cccc(F)c4C3)CN2C1=O was what?
A. inactive

Q. Call for entry CC=CCC=CCCC(=O)[C@H]1O[C@@H]1C(N)=O :
A. active

Q. Any idea what this test logged for CCOC(=O)O[C@]1(C(=O)OCCl)CC[C@@H]2[C@H]3CCC4=CC(=O)C=C[C@]4(C)[C@@H]3[C@@H](O)C[C@@]21C ?
A. active

Q. # lookup: test call for CC(=NNC(=S)N1CCC1)c1ccccn1
A. active

Q. What did this assay record as the result for Cc1nnc(C(C)C)n1C1C[C@H]2CC[C@@H](C1)N2CC[C@H](NC(=O)C1CCC(F)(F)CC1)c1ccccc1 (some centres undefined) ?
A. inactive

Q. Please state the recorded outcome for this compound: Clc1ccc(-c2nc3sccn3c2C=NOCc2ccc(Cl)c(Cl)c2)cc1
A. inactive

Q. // param item: CC1(C)Cc2c(sc(NC(=S)NC(=O)c3ccccc3)c2C(=O)O)CO1 ; yields the recorded call
A. inactive

Q. Entry COC[C@@H](c1ccc(C(F)(F)F)cc1)N1CCN(C2(C)CCN(C(=O)c3c(C)ncnc3C)CC2)C[C@H]1C : call = ?
A. inactive
